TESTED_SYSTEM: Aromatase (Homo sapiens)
TEST_SUMMARY: Inhibitory concentration was tested on Cytochrome P450 19A1 in human placental microsomes 20 (microg) of protein incubated for 20 min
Design: species or system Placenta
// thresholds for IC50 classes: lower bin: < 400 nM; middle bin: ≥ 400 nM and < 1000 nM; upper bin: ≥ 1000 nM

Prompt line: Which class holds CC12CCC3C(C[C@@H](c4ccccc4)C4=CC(=O)CCC43C)C1CCC2=O (stereo partly specified) ?
Response line: upper bin

---

TESTED_SYSTEM: Aromatase (Homo sapiens, UniProt P11511)
Sequence (P11511 whole entry): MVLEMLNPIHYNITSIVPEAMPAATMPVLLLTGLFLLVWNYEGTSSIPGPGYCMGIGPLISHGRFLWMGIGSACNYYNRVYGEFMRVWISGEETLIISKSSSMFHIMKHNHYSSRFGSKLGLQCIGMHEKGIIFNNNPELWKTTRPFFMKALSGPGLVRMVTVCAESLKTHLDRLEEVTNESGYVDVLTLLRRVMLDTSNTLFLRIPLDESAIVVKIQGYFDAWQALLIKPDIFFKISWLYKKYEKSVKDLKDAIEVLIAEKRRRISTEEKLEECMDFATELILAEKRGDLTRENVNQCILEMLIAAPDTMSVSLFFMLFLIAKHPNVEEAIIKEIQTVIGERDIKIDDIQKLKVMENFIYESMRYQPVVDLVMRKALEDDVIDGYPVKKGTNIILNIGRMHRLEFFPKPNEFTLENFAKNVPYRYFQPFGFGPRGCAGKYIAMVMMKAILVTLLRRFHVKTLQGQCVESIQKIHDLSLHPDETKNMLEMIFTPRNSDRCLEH
TEST_SUMMARY: Binding affinity for human placental microsome Cytochrome P450 19A1
ENDPOINT_LABEL: pKi
For clarity, pKi is expressed as the negative log10 of concentration in mol/L.

# annotated cases, reported pKi shown
C[C@H]1CC2C3CCC(=O)C3(C)CCC2C2(C)CCC(=O)C=C12 (stereo partly drawn) = 8.25
CC[C@H]1CC2C3CCC(=O)C3(C)CCC2C2(C)CCC(=O)C=C12 (stereo partly drawn) = 8.33
C#C[C@@H]1CC2C3CCC(=O)C3(C)CCC2C2(C)CCC(=O)C=C12 (stereo partly drawn) = 7.21

The recorded pKi for CC[C@@H]1CC2C3CCC(=O)C3(C)CCC2C2(C)CCC(=O)C=C12 (stereo partly drawn) is 8.85

The recorded pKi for CC12CCC3C(C[C@@H](c4ccccc4)C4=CC(=O)CCC43C)C1CCC2=O (stereo partly drawn) is 7.43

The recorded pKi for CCC[C@@H]1CC2C3CCC(=O)C3(C)CCC2C2(C)CCC(=O)C=C12 (stereo partly drawn) is 8.34

The recorded pKi for CCCC[C@@H]1CC2C3CCC(=O)C3(C)CCC2C2(C)CCC(=O)C=C12 (stereo partly drawn) is 8.06

The recorded pKi for C[C@@H]1CC2C3CCC(=O)C3(C)CCC2C2(C)CCC(=O)C=C12 (stereo partly drawn) is 7.96
